Recorded values, source the supplement of paper PMC10567573.

B1: ZNF263 (parent)
chain: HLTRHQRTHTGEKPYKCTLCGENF

Variants of: B1
procedureText: protein stability index of a GFP-peptide fusion (GPS, HEK-293T) (PSI 1-6); higher = more stable;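 further: lentivirally expressed fusions sorted by FACS into six bins by GFP to DsRed ratio, PSI derived from sequencing read proportions per bin multiplied by bin number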
cond: c terminus: a fixed tail appended
Each record here notes measured protein stability index.

# mutationLabel, protein stability index
measured = [
    ("C17P", 3.37),
    ("K13Q", 3.6),
    ("R4Y", 2.76),
    ("L2T", 3.14),
    ("H5T", 2.24),
    ("E22M", 2.31),
    ("C20T", 3.93),
    ("G21E", 3.58),
    ("K16L", 2.33),
    ("G11R", 2.94),
    ("T10W", 2.82),
    ("R7C", 4.78),
    ("T18C", 2.54),
    ("H9P", 2.77),
    ("T8A", 3.44),
    ("E22C", 2.29),
    ("Q6G", 2.85),
    ("H1K", 2.74),
    ("Q6Y", 2.7),
    ("R7K", 2.97),
    ("G21Q", 2.85),
    ("P14T", 2.88),
]
